# System: Vero
# TEST_PROTOCOL: Cytotoxicity against african green monkey Vero cells after 72 hrs by MTT assay
# Format: cell-based
# EXPERIMENTAL_SETUP: Chlorocebus sabaeus

MOLECULE: CCc1ccc(C(=O)NCC2=C[C@@H]3Oc4ccccc4C(=O)C3=CN2c2ncccc2C)cc1
TESTED_ON: Vero
IC50: > 138 µM

MOLECULE: Cc1ccc(C(=O)NCC2=C[C@@H]3Oc4ccccc4C(=O)C3=CN2c2ncccc2C)cc1
TESTED_ON: Vero
IC50: > 143 µM

MOLECULE: CC[C@@H](CO)NCCN[C@@H](CC)CO
TESTED_ON: Vero
IC50: > 306 µM

MOLECULE: O=C(NCC1=C[C@@H]2Oc3ccccc3C(=O)C2=CN1c1ncc(Br)cc1Br)c1cccc(Cl)c1
TESTED_ON: Vero
IC50: 104 µM

MOLECULE: O=C(NCC1=C[C@@H]2Oc3ccccc3C(=O)C2=CN1c1ncc(Br)cc1Br)c1ccc(Cl)cc1
TESTED_ON: Vero
IC50: > 104 µM

MOLECULE: COc1ccc(C(=O)NCC2=C[C@@H]3Oc4ccccc4C(=O)C3=CN2c2ncccc2C)cc1
TESTED_ON: Vero
IC50: > 138 µM

MOLECULE: Cc1ccc2ccc(C(=O)NCC3=C[C@@H]4Oc5ccccc5C(=O)C4=CN3c3ncccc3C)cc2c1
TESTED_ON: Vero
IC50: > 128 µM

MOLECULE: Cc1cccnc1N1C=C2C(=O)c3ccccc3O[C@H]2C=C1CNC(=O)c1ccccc1
TESTED_ON: Vero
IC50: > 148 µM

MOLECULE: Cc1cccnc1N1C=C2C(=O)c3ccccc3O[C@H]2C=C1CNC(=O)c1ccc(Cl)cc1
TESTED_ON: Vero
IC50: 136 µM

MOLECULE: Cc1cccnc1N1C=C2C(=O)c3ccccc3O[C@H]2C=C1CNC(=O)c1cccc(Cl)c1
TESTED_ON: Vero
IC50: > 136 µM

MOLECULE: NNC(=O)c1ccncc1
TESTED_ON: Vero
IC50: > 456 µM

MOLECULE: Cc1cccnc1N1C=C2C(=O)c3ccccc3O[C@H]2C=C1CNC(=O)c1ccc(F)cc1
TESTED_ON: Vero
IC50: > 142 µM

MOLECULE: CCc1ccc(C(=O)NCC2=C[C@@H]3Oc4ccccc4C(=O)C3=CN2c2ncc(Br)cc2Br)cc1
TESTED_ON: Vero
IC50: 105 µM

MOLECULE: Cc1ccc2ccc(C(=O)NCC3=C[C@@H]4Oc5ccccc5C(=O)C4=CN3c3ncc(Br)cc3Br)cc2c1
TESTED_ON: Vero
IC50: 99 µM

MOLECULE: CO[C@H]1/C=C/O[C@@]2(C)Oc3c(C)c(O)c4c(O)c(c(/C=N/N5CCN(C)CC5)c(O)c4c3C2=O)NC(=O)/C(C)=C\C=C\[C@H](C)[C@H](O)[C@@H](C)[C@@H](O)[C@@H](C)[C@H](OC(C)=O)[C@@H]1C
TESTED_ON: Vero
IC50: > 75.9 µM

MOLECULE: Cc1cccnc1N1C=C2C(=O)c3ccccc3O[C@H]2C=C1CNC(=O)c1ccc2ccccc2c1
TESTED_ON: Vero
IC50: 142 µM

MOLECULE: O=C(NCC1=C[C@@H]2Oc3ccccc3C(=O)C2=CN1c1ncc(Br)cc1Br)c1ccc2ccccc2c1
TESTED_ON: Vero
IC50: 101 µM

MOLECULE: CC1COc2c(N3CCN(C)CC3)c(F)cc3c(=O)c(C(=O)O)cn1c23 (centres undefined)
TESTED_ON: Vero
IC50: > 155 µM

MOLECULE: O=C(NCC1=C[C@@H]2Oc3ccccc3C(=O)C2=CN1c1ncc(Br)cc1Br)c1ccc(Cl)c(Cl)c1
TESTED_ON: Vero
IC50: 50.7 µM
